Just for reference, ChEMBL document CHEMBL1765052 is where these values come from.

subjectOfTest: Solute carrier family 22 member 12 (Homo sapiens, UniProt Q96S37)
Sequence (Q96S37 whole entry): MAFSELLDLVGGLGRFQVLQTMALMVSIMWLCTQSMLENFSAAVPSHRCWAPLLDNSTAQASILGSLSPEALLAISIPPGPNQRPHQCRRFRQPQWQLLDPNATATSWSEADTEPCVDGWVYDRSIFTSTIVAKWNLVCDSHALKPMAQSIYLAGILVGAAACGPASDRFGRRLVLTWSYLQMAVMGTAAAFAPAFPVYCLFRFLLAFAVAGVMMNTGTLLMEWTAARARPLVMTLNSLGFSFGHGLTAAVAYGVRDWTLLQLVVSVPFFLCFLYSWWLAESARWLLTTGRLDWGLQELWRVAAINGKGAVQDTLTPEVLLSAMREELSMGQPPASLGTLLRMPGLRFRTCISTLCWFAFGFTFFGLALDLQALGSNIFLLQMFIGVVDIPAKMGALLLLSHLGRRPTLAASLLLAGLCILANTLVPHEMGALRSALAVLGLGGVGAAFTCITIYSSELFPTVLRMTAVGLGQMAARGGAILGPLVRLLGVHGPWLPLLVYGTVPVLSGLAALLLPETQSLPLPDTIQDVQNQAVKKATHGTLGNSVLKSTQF
assayOverview: Inhibition of human URAT1 expressed in xenopus oocyte assessed as inhibition of [14C]-labelled urate uptake after 60 mins by liquid scintillation counting
# label = class 1 if IC50 < 20 µM else class 0

For orientation, consider the following solved cases.
# smilesInput, labelClass
measured = [
    ("CCc1cc2c(C(=O)c3ccc(O)cc3)c(OC)ccc2o1", "class 1"),
    ("CCc1cc2cc(OC)cc(C(=O)c3ccc(O)cc3)c2o1", "class 0"),
    ("CCc1oc2ccc(O)cc2c1C(=O)c1ccc(O)cc1", "class 1"),
    ("CCc1cc2c(C(=O)c3cc(Br)c(O)c(Br)c3)cc(Br)c(O)c2o1", "class 1"),
    ("CCc1oc2cc(Br)c(O)c(Br)c2c1C(=O)c1ccc(OC)cc1", "class 0"),
]

(Q) Is 20 µM strictly greater than the compound's reported IC50? compound: CCc1oc2ccc(OC)cc2c1C(=O)c1ccc(O)cc1
(A) class 1

(Q) Is 20 µM strictly greater than the compound's reported IC50? compound: CCc1oc2cc(O)ccc2c1C(=O)c1ccc(O)cc1
(A) class 1
